System: Rattus norvegicus
procedure-summary: Antihyperglycemic activity against sucrose-challenged fasted Wistar rat assessed as reduction in blood glucose at 100 mg/kg, po administered 30 mins before sucrose challenge measured after 30 mins post sucrose dose relative to control
Assay type: functional
Design: scale not given: the % may be the effect or the level left
Reported Activity values for a set of compounds
readout-label: Activity

1) COc1ccc(/C=C/C(=O)C[C@@H]2O[C@H](CO)[C@@H](O)[C@H](O)[C@H]2O)cc1OC 26.7%
2) CN(C)C(=N)NC(=N)N 31.2%
3) O=C(/C=C/c1ccc2ccccc2c1)C[C@@H]1O[C@H](CO)[C@@H](O)[C@H](O)[C@H]1O 25%
4) O=C(/C=C/c1ccccc1)C[C@@H]1O[C@H](CO)[C@@H](O)[C@H](O)[C@H]1O 19.5%

This collection of values is drawn from ChEMBL document CHEMBL1151870.
